Assign %Inh to each entry below.
Test system: MRCKA
conditions: concentration: 1 μM, replicates: in singlicate; n = 1;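 also: KINOMEscan kinase panel screen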
Please state the number and follow it with the unit.

Form field: reported %Inh of "Cn1ccc2ncnc(Oc3ccc(Nc4nc5ccccc5[nH]4)cc3)c21" 0%

Try the compound "Cc1ccc(C(=O)Nc2ccc(Nc3ccnc4cc(-c5ccccn5)ccc34)cc2O)cc1.Cl" 18%

Okay, and "CCn1c(-c2ccccn2)nc2cnccc21" ? 14%

For "Cc1ccc(-c2cc(-c3c[nH]nc3-c3ccccn3)ccn2)cc1" then? 2%

Next entry: "CC(=O)Nc1nc2cnc(Nc3cc(NC(=O)c4cccc(CCC#N)c4)ccc3C)nc2s1" 0%

###

Could you please report measured %Inh for the items listed next?
Test system: BRSK2
conditions: concentration: 1 μM, replicates: in singlicate; n = 1
Lab book: enter the figure in %, no units written.

Return reported %Inh; argument: COc1ccc(CNC(=O)NC2CCN(c3ccnc(Nc4cc(OC)c(OC)c(OC)c4)n3)C2)cc1 (stereo not drawn) 0

Similarly, "COc1cccc(-c2cc(-c3c[nH]nc3-c3ccccn3)ccn2)c1" ? 0

Now consider "Cl.NC(=O)c1cccc(Nc2nccc(Nc3ccc(Oc4cccc(Cl)c4)c(Cl)c3)n2)c1" and answer again. 0

###

System: CASK
conditions: concentration: 1 μM, replicates: in singlicate; n = 1
assay_readout: %Inh (%)
The figure you give is taken to be in %; do not add the unit.

So what's the measured %Inh for this one? Clc1cc(Cl)cc(Nc2ccnc(Nc3cc(Cl)cc(Cl)c3)n2)c1 [GSK175726] 13

Same question for Cc1csc(-c2nc(Nc3ccncc3)c3ccccc3n2)n1 [GW869640] please. 26

Please give the result for COc1ccc(CNC(=O)NC2CCN(c3ccnc(Nc4cc(OC)c(OC)c(OC)c4)n3)C2)cc1 (centres unmarked) [GSK1379748] too. 10

Moving on to COc1ccc(Nc2nccc(NCCNC(=O)Nc3ccccc3F)n2)cc1 [GSK1379901] 9

What about this compound? O=C(Nc1n[nH]c2nc(-c3nccs3)c(Br)cc12)C1CCCC1 [SB-742609] 19

Item: CN(C)CCN(C)C(=O)c1cc(-c2ccncc2)c(-c2ccc(Cl)c(O)c2)o1.Cl.Cl [SB-710397] 29

Would you kindly repeat that for Cl.Oc1ccc(-c2nc(-c3ccccc3)[nH]c2-c2ccncc2)cc1 [SB-428218] ? 0

One more compound: "CC(C)(C)c1ccc(C(=O)Nc2cn3cc(Cl)ccc3n2)cc1" 18

Continue with Fc1cc(Cl)ccc1Nc1ccnc2cc(-c3ccc(CN4CCCCC4)o3)ccc12 [GW560116] 2

Same again, this time with Nc1nc(-c2nccs2)c(-c2ccnc3ccccc23)s1 [GW693542] 0

Input CN1C(=O)C(Nc2ccc(Cl)c(C(=O)O)c2)=C(c2ccc(Cl)cc2)C1=O [SB-404290] 3

###

Tested on: RSK4(Kin.Dom.2-C-terminal)
Construct: gene RPS6KA6
conditions: concentration: 1 μM, replicates: in singlicate; n = 1
// NB: equality with 9% counts as N; only %Inh strictly below is Y

Is it true that %Inh reported for COc1ccc(CNC(=O)NC2CCN(c3ccnc(Nc4cc(OC)c(OC)c(OC)c4)n3)C2)cc1 (stereo not drawn) [GSK1379748] is less than 9%? Y

Request: COc1cc(Nc2nccc(N3CCC(NC(=O)Nc4cc(C)ccc4C)C3)n2)cc(OC)c1OC (stereo not drawn) [GSK1379762] N

Next molecule up: "Cn1ccc2ncnc(Oc3ccc(NC(=O)Nc4ccccc4)cc3)c21" Y

Another molecule to check: COc1ccccc1CNC(=O)c1cc(C(=O)c2ccccc2C)c[nH]1 [GSK364507] Y

Now consider CCn1c(-c2ccccn2)nc2cnccc21 [SB-736398] . Y

Also check COc1ccc(C2=C(Nc3cccc(C(=O)O)c3)C(=O)NC2=O)cc1 [SB-390765] N

Then this molecule: COc1cc2ncnc(Nc3ccc4nc(-c5ccccc5)[nH]c4c3)c2cc1OC.Cl [GW282450] Y

Try this molecule next: CC1=C(C(=O)Nc2cc3cn[nH]c3cc2F)C(c2ccc(C(F)(F)F)cc2)CC(=O)N1 (stereo not drawn) [GSK429286] N

Consider next the molecule C[C@@H]1CCCCN1c1cc(-c2ccc3c(N)n[nH]c3c2)nc(N)n1 [GSK2258759] in the same way. N

Could you do the same for Fc1cc(Cl)ccc1Nc1ccnc2cc(-c3ccc(CN4CCCCC4)o3)ccc12 [GW560116] , please? N

Try the molecule O=C(Nc1ccc2c(c1)OCO2)NC1CCN(c2ccnc(Nc3ccc(F)cc3)n2)C1 (stereo not drawn) [GSK1379724] Y

Now this one: "Cn1ccc2ncnc(Oc3cccc(C(=O)Nc4ccccc4)c3)c21" Y

Item: O=C(Nc1n[nH]c2nc(-c3nccs3)c(Br)cc12)C1CC1 [SB-742251] Y

Continue with COc1cc2nccc(Nc3ccc(NC(=O)c4ccc(C)cc4)c(O)c3)c2cc1OC.Cl [GW440132] Y

Repeat for the following molecule: Cc1nnc(-c2ccc3occ(-c4ccc(S(C)=O)cc4)c3c2)[nH]1 (stereo not drawn) N

Follow-up item: CCCc1ccc(S(=O)(=O)NC2CCN(c3ccnc(Nc4ccc(F)cc4)n3)C2)cc1 (stereo not drawn) [GSK1379715] Y

// repeat for Cc1cc(-c2ccc3c(c2)CC[C@@H](N[C@@H](C)c2ccccc2)C3)cnc1N.Cl [GW412617] and report Y
